Assign EC50 to each entry below.
# EXPERIMENTAL_TARGET: T1, Human IL-11 (human, UniProt P20809 22-199)
# T1 construct: Recombinant human IL-11 (GenScript Cat. No. Z03108-1) or IL-11 secreted by human cells; the mature form is said to have 178 residues; also called recombinant human IL-11; endogenously produced IL-11
# T1 sequence: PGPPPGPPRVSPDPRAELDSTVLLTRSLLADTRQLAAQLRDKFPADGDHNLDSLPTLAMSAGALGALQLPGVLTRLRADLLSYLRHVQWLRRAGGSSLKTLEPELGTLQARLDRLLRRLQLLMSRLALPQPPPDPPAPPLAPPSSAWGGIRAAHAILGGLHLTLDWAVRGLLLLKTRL
# EXPERIMENT_NOTES: ELISA on coated recombinant human IL-11 (100 ng/well), scFv-Fc
# Experimental: The light chain shuffled anti-IL-11 antibodies were analysed to determine the EC50 for binding to human IL-11 by ELISA according to standard methods. Briefly, wells of microtiter plates were coated with recombinant human IL-11 (100 ng/well), scFv-Fc comprising the VH and VL domains of the clones were added in a dilution series and antibody binding was detected using a polyclonal antibody detection system.
Numbers only, in µg/mL.

Please review the following examples before continuing.
YU100-D05 (antibody) QVQLQQSGGGVVQPGRSLRLSCAASGFTFSSYGMHWVRQAPGKGLEWVAVISYDGSNKYYADSVKGRFTISRDNSKNTLYLQMNSLRAEDTAVYYCAKIGATDPLDYWGQGTLVTVSSGSASAPKLEEGEFSEARVQSALTQPASVSGSPGQLITISCTGTNSDVGGYNYVSWYQQHPGKAPKLMIYDVSNRPSGVSNRFSGSKSGNTASLTISGLQAEDEADYYCCSYAGSYTWVFGGGTKLTVLGQPKAAPSVTLFPPSS
0.042
YU100-H04 (antibody) QVQLVESGGGVVQPGRSLRLSCAASGFTFSSYAMHWVRQAPGKGLEWVAVISYDGSNKYYADSVKGRFTISRDNSKNTLYLQMNSLRAEDTAVYYCARIMGYDYGDYDVVDYWGQGTLVTVSSGSASAPKLEEGEFSEARVQSALTQPASVSGSPGQSITISCTGTSSDIGVYNYVSWYQQHPGKAPKLMIYDVSKRPSGVPDRFSGSKSGNTASLTISGLQAEDEADYYCCSYAGSYTWVFGGGTKLTVL
0.027

Proceeding to the next binder to report its EC50.
(Q) Given YU112-D08 (antibody) QVQLVESGGGVVQPGRSLRLSCAASGFTFSSYGMHWVRQAPGKGLEWVAVISYDGSNKYYADSVEGRFTISRDNSKNTLYLQMNSLRAEDTAVYYCAKIGATDPLDYWGQGTLVTVSSGSASAPKLEEGEFSEARVQSALTQPRSVSGSPGQSVTISCTGTISDVGGYNYVSWYQQHPGKAPKLMIYDVTKRPSGVPDRFSGSKSGNTASLTISGLQAEDEAGYYCSSYAGSYTWVFGGGTELTVL , respond with its EC50.
(A) 0.018
